Biological target: D(1B) dopamine receptor (Homo sapiens)
Experiment: D5 receptor allosteric modulators, concentration-response – cell-based, HEK293, CRE-luciferase, luminescence, EC30 dopamine, selectivity assay for D1 allosteric modulator project, dose response (AID 857);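 further: HEK 293 cells expressing human D5 with a CRE-driven luciferase reporter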
Calls of active or inactive are those of the source.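 How the source made its calls: active means a full or partial dose-response curve in at least two of three replicate runs; inactive means the rest.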
recorded-metric: outcome

Below, each entry is followed by its recorded outcome result.
What outcome appears in the records for this molecule with D(1B) dopamine receptor (Homo sapiens)? CCSc1nc(-c2ccco2)ccc1C#N
inactive

Field: outcome (D(1B) dopamine receptor (Homo sapiens)). Entry: Cc1cc(N2CCN(S(=O)(=O)c3ccc4c(c3)OCCO4)CC2)n2ncnc2n1
inactive

Item: O=C(NCc1ccco1)c1cnn2c(C(F)(F)F)cc(-c3ccco3)nc12 Test system: D(1B) dopamine receptor (Homo sapiens) Read-out: outcome Value: ?
inactive

GET /values?readout=outcome&system=D(1B) dopamine receptor (Homo sapiens)&item= Cc1cc(SCC(=O)N2CCC(c3noc4ccc(F)cc34)CC2)nc2ccccc12
inactive

GET /values?readout=outcome&system=D(1B) dopamine receptor (Homo sapiens)&item= CCCn1c(SCC(=O)Nc2sc(C)c(C)c2C(=O)OCC)nc2c1c(=O)n(C)c(=O)n2C
inactive

Requested read-out outcome, target or system D(1B) dopamine receptor (Homo sapiens), entry Cc1nc2ccc(CCO)cc2s1
inactive

More entries:
API: value(readout=outcome, system=D(1B) dopamine receptor (Homo sapiens)) for record N#Cc1ccc(-c2ccco2)nc1SCc1ccccc1
inactive

Param readout = outcome; param system = D(1B) dopamine receptor (Homo sapiens); param query = COc1ccc(CN(Cc2cccnc2)S(=O)(=O)c2ccc(-n3cnnn3)c(C)c2)cc1OC ; response: value
inactive

# value lookup — system D(1B) dopamine receptor (Homo sapiens), readout outcome, item CC(=O)c1cc(C#N)c(SCc2ccncc2)nc1C
inactive

// lookup outcome | system=D(1B) dopamine receptor (Homo sapiens) | key= Cc1ccc(S(=O)(=O)N2CCN(C(=O)COC(=O)c3cc(C)oc3C)CC2)cc1
inactive

Find the measured outcome: item O=C(Nc1ncnc2sc3c(c12)CCCCC3)c1ccco1 , target or system D(1B) dopamine receptor (Homo sapiens).
inactive
